Molecular target: hCA I (Homo sapiens, UniProt P00915)
Construct: gene CA1; purchased from Merck; cytosolic isoform; construct not described
Sequence (P00915 2-261): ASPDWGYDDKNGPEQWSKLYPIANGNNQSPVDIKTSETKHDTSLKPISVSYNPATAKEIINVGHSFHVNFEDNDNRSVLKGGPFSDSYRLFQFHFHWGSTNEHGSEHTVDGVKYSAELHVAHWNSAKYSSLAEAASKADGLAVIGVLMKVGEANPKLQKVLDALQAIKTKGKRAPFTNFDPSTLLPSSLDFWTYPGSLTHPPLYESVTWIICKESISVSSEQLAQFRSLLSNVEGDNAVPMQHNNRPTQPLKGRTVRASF
Experiment: stopped-flow CO2 hydrase assay
Format: biochemical
Class boundaries, taken from values of Ki, are as follows: bucket A: < 6 nM; bucket B: ≥ 6 nM and < 9 nM; bucket C: ≥ 9 nM

| CHEMICAL_STRING | CAT |
| --- | --- |
| NS(=O)(=O)c1cc(C(=O)N2CCN(S(=O)(=O)Cc3ccccc3)CC2)c(Cl)cc1Cl | bucket A |
| NS(=O)(=O)c1cc(C(=O)N2CCN(S(=O)(=O)c3cccc([N+](=O)[O-])c3)CC2)c(Cl)cc1Cl | bucket B |
| NS(=O)(=O)c1cc(C(=O)N2CCN(S(=O)(=O)c3ccccc3)CC2)c(Cl)cc1Cl | bucket C |
| CC(C)(C)OC(=O)N1CCN(C(=O)c2cc(S(N)(=O)=O)c(Cl)cc2Cl)CC1 | bucket C |
| Nc1ccc(S(=O)(=O)N2CCN(C(=O)c3cc(S(N)(=O)=O)c(Cl)cc3Cl)CC2)cc1 | bucket A |

--- query ---
Input `NS(=O)(=O)c1cc(C(=O)N2CCN(S(=O)(=O)c3ccc([N+](=O)[O-])cc3)CC2)c(Cl)cc1Cl` ; output its category
bucket C
